Target desc: 11β-hsd-1 enzyme (Homo sapiens, UniProt P28845)
Sequence (P28845 whole entry, species assumed): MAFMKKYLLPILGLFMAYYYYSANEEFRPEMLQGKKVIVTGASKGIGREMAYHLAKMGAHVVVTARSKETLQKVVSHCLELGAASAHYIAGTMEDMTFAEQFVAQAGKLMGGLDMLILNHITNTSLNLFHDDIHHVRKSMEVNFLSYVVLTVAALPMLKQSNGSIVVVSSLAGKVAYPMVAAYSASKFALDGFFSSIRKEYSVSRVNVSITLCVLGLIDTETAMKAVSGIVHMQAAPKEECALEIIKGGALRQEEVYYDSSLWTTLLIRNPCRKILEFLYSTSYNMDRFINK
Procedure text: biochemical
Settings: read-out: % Inh @ 0.1 mM
Method: Percentage of inhibition was determined in a 100 mM Triethanolamine buffer, pH 8.0, 200 mM NaCl, 0.02% n-dodecyl β-D-maltoside and 5 mM β-ME. […] Percent Inhibition was calculated based on the following equation: (1-(3H-Cortisol peak area in the […] of inhibitor)×100).
Observation type: inhibition (%)

a = CCc1cccc(NS(=O)(=O)N2CCC(Oc3ccc(Cl)cc3)CC2)n1 [Example 112]
b = CCc1cccc(NS(=O)(=O)N2CCN(c3ncccc3C(F)(F)F)CC2)n1 [Example 198]
Request: Param pair: a , b . Output: the one whose inhibition is numerically greater. Identify your pick by its label.
Result: a

These measurements were taken from patent US20070027118A1.
